- tested.system: T1, recombinant human ASM protein (human, UniProt P17405 47-630)
- T1 construct: Recombinant human ASM in solution; also called acid sphingomyelinase (ASM) protein
- T1 sequence: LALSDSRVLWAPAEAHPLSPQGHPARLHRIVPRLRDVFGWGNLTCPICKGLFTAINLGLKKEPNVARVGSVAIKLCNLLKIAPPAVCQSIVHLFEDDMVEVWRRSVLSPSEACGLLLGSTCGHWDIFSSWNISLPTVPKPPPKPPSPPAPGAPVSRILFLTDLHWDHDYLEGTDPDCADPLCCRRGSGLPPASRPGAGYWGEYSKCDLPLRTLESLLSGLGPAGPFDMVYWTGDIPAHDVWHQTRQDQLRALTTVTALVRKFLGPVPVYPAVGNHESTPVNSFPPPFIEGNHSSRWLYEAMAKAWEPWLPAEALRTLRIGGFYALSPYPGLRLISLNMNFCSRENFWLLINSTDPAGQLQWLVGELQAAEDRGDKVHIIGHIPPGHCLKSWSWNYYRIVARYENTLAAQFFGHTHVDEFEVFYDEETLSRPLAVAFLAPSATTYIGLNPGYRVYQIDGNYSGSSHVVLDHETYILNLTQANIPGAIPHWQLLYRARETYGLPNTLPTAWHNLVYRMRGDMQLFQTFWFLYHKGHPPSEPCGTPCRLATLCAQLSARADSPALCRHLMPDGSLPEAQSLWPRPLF
- measurement.notes: BLI (Octet), antibody on AHC sensor
outcome.measure: kon (M⁻¹ s⁻¹)
# value in M⁻¹ s⁻¹; strip the unit string

Example binders with recorded kon:
#9104a-C5 (antibody, human IgG4 S228P, lambda, V domains shown, VH of #9104v-H19 with VL of #9104v-L23; full-length IgG, lambda) VH: EVQLLESGGGLVQPGGSLRLSCAASGFTFSNYYMSWVRQAPGKGLEWVSGIYYGSGVPYYADSVKGRFTISRDNSKNTLYLQMNSLRAEDTAVYYCARDTPGFDYWGQGTLVTVSS VL: QSVLTQPPSASGTPGQRVTISCTGSSSNIGNNAVNWYQQLPGTAPKLLIYYDQFRPSGVPDRFSGSKSGTSASLAISGLRSEDEADYYCGAWDYSLSAYVFGGGTKLTVLG : 337000
#9104a-A4 (antibody, human IgG4 S228P, lambda, V domains shown, VH of #9104v-H17 with VL of #9104v-L20; full-length IgG, lambda) VH: EVQLLESGGGLVQPGGSLRLSCAASGFTFSNYYMSWVRRAPGKGLEWVSGIYYGSGTPYYAASVKGRFTISRDNSKNTLYLQMNSLRAEDTAVYYCARDTPGFDYWGQGTLVTVSS VL: QSVLTQPPSASGTPGQRVTISCTGSSSNIGNNAVNWYQQLPGTAPKLLIYYDMFRPGGVPDRFSGSKSGTSASLAISGLRSEDEADYYCGAWDYSLSAYVFGGGTKLTVLG : 219000

# next binder below
Look up kon for this binder: #9104a-C6 (antibody, human IgG4 S228P, lambda, V domains shown, VH of #9104v-H27 with VL of #9104v-L23; full-length IgG, lambda) VH: EVQLLESGGGLVQPGGSLRLSCAASGFTFSNYYMSWVRQAPGKGLEWVSGTYYDSGYVYYADSVKGRFTISRDNSKNTLYLQMNSLRAEDTAVYYCARDTPGFDYWGQGTLVTVSS VL: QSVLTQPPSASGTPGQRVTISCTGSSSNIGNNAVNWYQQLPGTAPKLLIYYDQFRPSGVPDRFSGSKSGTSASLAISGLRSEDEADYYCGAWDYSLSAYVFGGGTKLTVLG
117000

The measured values listed here are drawn from patent US20260201064A1.
